- TARGET_UNDER_TEST: Sodium channel protein type 1 subunit alpha (Homo sapiens)
- METHOD_NOTES: Activation of human Nav1.1 expressed in HEK293 cells assessed as ratio of compound activation AUC to baseline activation AUC at 3.3 uM at -120 mV holding potential by Qpatch assay
- Type: cell-based
Positions of bridges follow the written chain, without caps; N, C: chain ends. Non-standard residues stand in square brackets, D forms with d. Residues, ends and D or L forms follow the SMILES beside them. Phe(4-Cl) = N[C@@H](Cc1ccc(Cl)cc1)C(=O)O
Listed here: items and their measured Ratio AUC.

>  <COMPOUND>
CC[C@H](C)[C@H](NC(=O)[C@H](CCCNC(=N)N)NC(=O)[C@@H](NC(=O)[C@@H](N)CCCNC(=N)N)[C@@H](C)CC)C(=O)NCC(=O)N[C@@H](CC(C)C)C(=O)N[C@@H](Cc1ccccc1)C(=O)N[C@@H](CC(=O)O)C(=O)N[C@@H](CCC(N)=O)C(=O)N[C@@H](CC(C)C)C(=O)N[C@@H](Cc1ccc(Cl)cc1)C(=O)N[C@@H](CCCNC(=N)N)C(=O)N[C@@H](CC(C)C)C(N)=O (H-RIRIGLFDQL[Phe(4-Cl)]RL-NH2)

>  <OBSERVED_VALUE>
3.5

$$$$
>  <COMPOUND>
CC[C@H](C)[C@@H]1NC(=O)[C@H](CCCCN)NC(=O)[C@H]([C@@H](C)CC)NC(=O)[C@@H](N)CSSC[C@@H](C(=O)N[C@@H](CCC(N)=O)C(=O)N[C@@H](CC(C)C)C(=O)N[C@@H](CO)C(=O)N[C@@H](CCCNC(=N)N)C(=O)N[C@@H](CC(C)C)C(N)=O)NC(=O)[C@H](Cc2ccccc2)NC(=O)[C@H](CC(C)C)NC(=O)CNC1=O (H-CIKIGLFCQLSRL-NH2; disulfide 1-8)

>  <OBSERVED_VALUE>
1.1

$$$$
>  <COMPOUND>
CC[C@H](C)[C@H](NC(=O)[C@H](CC(=O)O)NC(=O)[C@@H](NC(=O)[C@@H](N)CCCNC(=N)N)[C@@H](C)CC)C(=O)NCC(=O)N[C@@H](CC(C)C)C(=O)N[C@@H](Cc1ccccc1)C(=O)N[C@@H](CCCCN)C(=O)N[C@@H](CCC(N)=O)C(=O)N[C@@H](CC(C)C)C(=O)N[C@@H](CO)C(=O)N[C@@H](CCCNC(=N)N)C(=O)N[C@@H](CC(C)C)C(N)=O (H-RIDIGLFKQLSRL-NH2)

>  <OBSERVED_VALUE>
1.1

$$$$
>  <COMPOUND>
CC[C@H](C)[C@H](NC(=O)[C@H](CCCNC(=N)N)NC(=O)[C@@H](NC(=O)[C@@H](N)CCCNC(=N)N)[C@@H](C)CC)C(=O)NCC(=O)N[C@@H](CC(C)C)C(=O)N[C@@H](Cc1ccccc1)C(=O)N[C@@H](CC(=O)O)C(=O)N[C@@H](CCC(N)=O)C(=O)N[C@@H](CC(C)C)C(=O)N[C@@H](Cc1ccc(O)cc1)C(=O)N[C@@H](CCCNC(=N)N)C(=O)N[C@@H](CC(C)C)C(N)=O (H-RIRIGLFDQLYRL-NH2)

>  <OBSERVED_VALUE>
2

$$$$

We next turn to a different compound, shown below.
stdin: Test system Sodium channel protein type 1 subunit alpha (Homo sapiens); read-out Ratio AUC; what value for CC[C@H](C)[C@H](NC(=O)[C@H](CCCNC(=N)N)NC(=O)[C@@H](NC(=O)[C@@H](N)CCCNC(=N)N)[C@@H](C)CC)C(=O)NCC(=O)N[C@@H](CC(C)C)C(=O)N[C@@H](Cc1ccccc1)C(=O)N[C@@H](CC(=O)O)C(=O)N[C@@H](CCC(N)=O)C(=O)N[C@@H](CC(C)C)C(=O)N[C@@H](CO)C(=O)N[C@@H](CCCNC(=N)N)C(=O)N[C@@H](CC(C)C)C(N)=O (H-RIRIGLFDQLSRL-NH2) ?
stdout: 2
